# credit: patent US6822146B2

Tested on: Solanum nigrum
Experiment: Test H weed control, field plots
Type: in vivo
Parameters: concentration or dose not given beside the values
Details: 36 days after treatment; g a.i./ha: tribenuron-methyl 22.5, metsulfuron-methyl 6, ethametsulfuron-methyl 16, imazapyr isopropylamine salt 15, aclonifen 1200
Counter-ions that a name gives are not always drawn.
measuredAttribute: weed control, visual rating: Solanum nigrum (%)
State just the number; it will be interpreted in %.

CC(C)C1(C)N=C(c2ncccc2C(=O)O)NC1=O (centres unmarked) [Imazapyr, isopropylamine salt, Imazapyr]    100

*Q* Give the measured weed control, visual rating: Solanum nigrum of `COC(=O)c1ccccc1S(=O)(=O)NC(=O)N(C)c1nc(C)nc(OC)n1` .
*A* 100

*Q* Would you kindly repeat that for `Nc1c([N+](=O)[O-])ccc(Oc2ccccc2)c1Cl` ?
*A* 20

*Q* // repeat for `COC(=O)c1ccccc1S(=O)(=O)NC(=O)Nc1nc(C)nc(OC)n1` and report
*A* 97

*Q* Then what about the compound `CCOc1nc(NC)nc(NC(=O)NS(=O)(=O)c2ccccc2C(=O)OC)n1` ?
*A* 70
